Where do the numbers come from? From patent US20230293638A1.

- test-system: human GLP-1 receptor (human, UniProt P43220 24-463)
- test-details: cell-based or functional assay
property-label: hGLPIR cAMP EC50 ratio
Lab note: jot the number down without any unit.

Ask | Which measured hGLPIR cAMP EC50 ratio value corresponds to YXEGTFTSDYXILLDKKAQXAFIEYLIEGGPSSGAPPPS (Aib2; αMeS11; K17((2-[2-(2-Amino-ethoxy)-ethoxy]-acetyl)2-(γGlu)-CO-(CH2)18-CO2H); Aib20; C-terminal NH2) [Peptide 68] ?
Reply | 0.354

Ask | Param item = YXEGTXTSDHSIXLDEKAQXTFIXYLIEGGPSSGAPPPS (Aib2; αMeF(2F)6; αMeL13; K17((2-[2-(2-Amino-ethoxy)-ethoxy]-acetyl)2-(γGlu)-CO-(CH2)18-CO2H); Aib20; D-Glu24; C-terminal NH2) [Peptide 168] ; retrieve measured hGLPIR cAMP EC50 ratio.
Reply | 0.0323

Ask | Name the reported hGLPIR cAMP EC50 ratio value associated with the binder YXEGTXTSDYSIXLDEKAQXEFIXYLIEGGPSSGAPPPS (Aib2; αMeF(2F)6; αMeL13; K17((2-[2-(2-Amino-ethoxy)-ethoxy]-acetyl)2-(γGlu)-CO-(CH2)18-CO2H); Aib20; Aib24; C-terminal NH2) [Peptide 152]
Reply | 0.484

Ask | Recorded hGLPIR cAMP EC50 ratio for YXEGTXTSDYSIXLDKKAQXTFIEYLIEGGPSSGAPPPS (Aib2; αMeF6; αMeL13; K17((2-[2-(2-Amino-ethoxy)-ethoxy]-acetyl)2-(γGlu)-CO-(CH2)18-CO2H); Aib20; C-terminal NH2) [Peptide 139] , please?
Reply | 1.13

Ask | Query (binder): YXEGTXTSDYSIXLDXKAQXEFIXYLIEGGPSSGAPPPS (Aib2; αMeF(2F)6; αMeL13; Dab16; K17((2-[2-(2-Amino-ethoxy)-ethoxy]-acetyl)2-(γGlu)-CO-(CH2)18-CO2H); Aib20; D-Glu24; C-terminal NH2) [Peptide 217] ; field requested: hGLPIR cAMP EC50 ratio
Reply | 1.14

Ask | If you can, please state the reported hGLPIR cAMP EC50 ratio value of YXEGTXTSDYSIXLDEKAQXEFIXXLIEGGPSSGAPPPS (Aib2; αMeF(2F)6; αMeL13; K17((2-[2-(2-Amino-ethoxy)-ethoxy]-acetyl)2-(γGlu)-CO-(CH2)18-CO2H); Aib20; D-Glu24; αMeY25; C-terminal NH2) [Peptide 222] .
Reply | 1.55

Ask | I have this binder here, YXEGTXTSDXSIXLDEKAQXEFIXYLIEGGPSSGAPPPS (Aib2; αMeF(2F)6; 4Pal10; αMeL13; K17((2-[2-(2-Amino-ethoxy)-ethoxy]-acetyl)2-(εK)-CO-(CH2)18-CO2H); Aib20; D-Glu24; C-terminal NH2) [Peptide 207] , and I need its recorded hGLPIR cAMP EC50 ratio.
Reply | 1.23

Ask | // lookup hGLPIR cAMP EC50 ratio for YXEGTXTSDXSIXLDEKAQXEFIEYLIEGGPSSGAPPPS (Aib2; αMeF(2F)6; 3Pal10; αMeL13; K17((2-[2-(2-Amino-ethoxy)-ethoxy]-acetyl)2-(γGlu)-CO-(CH2)18-CO2H); Aib20; C-terminal NH2) [Peptide 157]
Reply | 1.25

Ask | Fill in the blank: the reported hGLPIR cAMP EC50 ratio of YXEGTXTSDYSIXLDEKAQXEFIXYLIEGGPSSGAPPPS (Aib2; αMeF(2F)6; αMeL13; K17((2-[2-(2-Amino-ethoxy)-ethoxy]-acetyl)2-(εK)-CO-(CH2)18-CO2H); Aib20; D-Glu24; C-terminal NH2) [Peptide 216] is ____.
Reply | 1.31

Ask | Fill blank: measured hGLPIR cAMP EC50 ratio of the binder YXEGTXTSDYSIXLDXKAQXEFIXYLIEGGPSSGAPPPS (Aib2; αMeF(2F)6; αMeL13; Dap16; K17((2-[2-(2-Amino-ethoxy)-ethoxy]-acetyl)2-(γGlu)-CO-(CH2)18-CO2H); Aib20; D-Glu24; C-terminal NH2) [Peptide 218] is ____.
Reply | 1.02

Ask | I would be grateful if you could share the reported hGLPIR cAMP EC50 ratio for YXEGTXTSDLSIXLDEKAQXEFIXYLIEGGPSSGAPPPS (Aib2; αMeF(2F)6; αMeL13; K17((2-[2-(2-Amino-ethoxy)-ethoxy]-acetyl)2-(γGlu)-CO-(CH2)18-CO2H); Aib20; D-Glu24; C-terminal NH2) [Peptide 183] .
Reply | 0.843

Ask | I would be grateful if you could share the reported hGLPIR cAMP EC50 ratio for YXEGTXTSDYSIXLDKKAQXXFIEYLIEGGPSSGAPPPS (Aib2; αMeF6; αMeL13; K17((2-[2-(2-Amino-ethoxy)-ethoxy]-acetyl)2-(γGlu)-CO-(CH2)18-CO2H); Aib20; Aad21; C-terminal NH2) [Peptide 137] .
Reply | 1.25

Ask | // returns reported hGLPIR cAMP EC50 ratio for input YXEGTFTSDYSILLDKKAQXAFIXYLIEGGPSSGAPPPS (Aib2; K17((2-[2-(2-Amino-ethoxy)-ethoxy]-acetyl)2-(γGlu)-CO-(CH2)18-CO2H); Aib20; D-Glu24; C-terminal NH2) [Peptide 84]
Reply | 0.173
